Consider the following sequences; for each one, report its solubility in G1/S (log2).
Test system: HeLa Kyoto
Assay: solubility in G1/S (NP-40 vs SDS abundance) (log2 ratio); higher = more soluble
Details: cell cycle stage: G1/S
One number for each entry.

>>> val("MAEPTVCSFLTKVLCAHGGRMFLKDLRGHVELSEARLRDVLQRAGPERFLLQEVETQEGLGDAEAEAAAGAVGGGGTSAWRVVAVSSVRLCARYQRGECQACDQLHFCRRHMLGKCPNRDCWSTCTLSHDIHTPVNMQVLKSHGLFGLNENQLRILLLQNDPCLLPEVCLLYNKGEALYGYCNLKDKCNKFHVCKSFVKGECKLQTCKRSHQLIHAASLKLLQDQGLNIPSVVNFQIISTYKHMKLHKMLENTDNSSPSTEHSQGLEKQGVHAAGAAEAGPLASVPAQSAKKPCPVSCEK [ZC3HAV1L]")
0.135

# query: solubility in G1/S (log2) of entry MKKVRLKELESRLQQVDGFEKPKLLLEQYPTRPHIAACMLYTIHNTYDDIENKVVADLGCGCGVLSIGTAMLGAGLCVGFDIDEDALEIFNRNAEEFELTNIDMVQCDVCLLSNRMSKSFDTVIMNPPFGTKNNKGTDMAFLKTALEMARTAVYSLHKSSTREHVQKKAAEWKIKIDIIAELRYDLPASYKFHKKKSVDIEVDLIRFSF [METTL5]
-0.0292

###

Consider the following sequences; for each one, report its melting temperature.
Test system: HeLa Kyoto
Assay: melting temperature (median over replicates), in situ; higher = more thermally stable
Settings: cell cycle stage: mitosis
Numbers only, in °C.

Batch: melting temperature for all items listed.
1. MNIMDFNVKKLAADAGTFLSRAVQFTEEKLGQAEKTELDAHLENLLSKAECTKIWTEKIMKQTEVLLQPNPNARIEEFVYEKLDRKAPSRINNPELLGQYMIDAGTEFGPGTAYGNALIKCGETQKRIGTADRELIQTSALNFLTPLRNFIEGDYKTIAKERKLLQNKRLDLDAAKTRLKKAKAAETRNSSEQELRITQSEFDRQAEITRLLLEGISSTHAHHLRCLNDFVEAQMTYYAQCYQYMLDLQKQLGSFPSNYLSNNNQTSVTPVPSVLPNAIGSSAMASTSGLVITSPSNLSDLKECSGSRKARVLYDYDAANSTELSLLADEVITVFSVVGMDSDWLMGERGNQKGKVPITYLELLN [SH3GLB1]
2. MLSRAVCGTSRQLAPVLGYLGSRQKHSLPDLPYDYGALEPHINAQIMQLHHSKHHAAYVNNLNVTEEKYQEALAKGDVTAQIALQPALKFNGGGHINHSIFWTNLSPNGGGEPKGELLEAIKRDFGSFDKFKEKLTAASVGVQGSGWGWLGFNKERGHLQIAACPNQDPLQGTTGLIPLLGIDVWEHAYYLQYKNVRPDYLKAIWNVINWENVTERYMACKK [SOD2]
3. MAAAAARWNHVWVGTETGILKGVNLQRKQAANFTAGGQPRREEAVSALCWGTGGETQMLVGCADRTVKHFSTEDGIFQGQRHCPGGEGMFRGLAQADGTLITCVDSGILRVWHDKDKDTSSDPLLELRVGPGVCRMRQDPAHPHVVATGGKENALKIWDLQGSEEPVFRAKNVRNDWLDLRVPIWDQDIQFLPGSQKLVTCTGYHQVRVYDPASPQRRPVLETTYGEYPLTAMTLTPGGNSVIVGNTHGQLAEIDLRQGRLLGCLKGLAGSVRGLQCHPSKPLLASCGLDRVLRIHRIQNPRGLEHKVYLKSQLNCLLLSGRDNWEDEPQEPQEPNKVPLEDTETDELWASLEAAAKRKLSGLEQPQGALQTRRRKKKRPGSTSP [WDR74]

48.7
56.8
52

###

Consider the following substances; for each one, report its melting temperature.
System: HeLa Kyoto
Test: melting temperature (median over replicates), in situ; higher = more thermally stable
Conditions: cell cycle stage: G1/S

// below: answered substances
>>> val("MPEINTNHLDKQQVQLLAEMCILIDENDNKIGAETKKNCHLNENIEKGLLHRAFSVFLFNTENKLLLQQRSDAKITFPGCFTNTCCSHPLSNPAELEESDALGVRRAAQRRLKAELGIPLEEVPPEEINYLTRIHYKAQSDGIWGEHEIDYILLVRKNVTLNPDPNEIKSYCYVSKEELKELLKKAASGEIKITPWFKIIAATFLFKWWDNLNHLNQFVDHEKIYRM [IDI1]")
"54.1 °C"
>>> val("MAAMASLGALALLLLSSLSRCSAEACLEPQITPSYYTTSDAVISTETVFIVEISLTCKNRVQNMALYADVGGKQFPVTRGQDVGRYQVSWSLDHKSAHAGTYEVRFFDEESYSLLRKAQRNNEDISIIPPLFTVSVDHRGTWNGPWVSTEVLAAAIGLVIYYLAFSAKSHIQA [SSR4]")
"55.5 °C"
>>> val("MWSGRKLGSSGGWFLRVLGPGGCNTKAARPLISSAVYVKNQLSGTLQIKPGVFNEYRTIWFKSYRTIFSCLNRIKSFRYPWARLYSTSQTTVDSGEVKTFLALAHKWWDEQGVYAPLHSMNDLRVPFIRDNLLKTIPNHQPGKPLLGMKILDVGCGGGLLTEPLGRLGASVIGIDPVDENIKTAQCHKSFDPVLDKRIEYRVCSLEEIVEETAETFDAVVASEVVEHVIDLETFLQCCCQVLKPGGSLFITTINKTQLSYALGIVFSEQIASIVPKGTHTWEKFVSPETLESILESNGLSVQTVVGMLYNPFSGYWHWSENTSLNYAAYAVKSRVQEHPASAEFVLKGETEELQANACTNPAVHEKLKK [COQ3]")
"55.3 °C"
>>> val("MESALAVPRLPPHDPGTPVLSVVDMHTGGEPLRIVLAGCPEVSGPTLLAKRRYMRQHLDHVRRRLMFEPRGHRDMYGAVLVPSELPDAHLGVLFLHNEGYSSMCGHAVLALGRFALDFGLVPAPPAGTREARVNIHCPCGLVTAFVACEDGRSHGPVRFHSVPAFVLATDLMVDVPGHGKVMVDIAYGGAFYAFVTAEKLGLDICSAKTRDLVDAASAVTEAVKAQFKINHPDSEDLAFLYGTILTDGKDAYTKEPTTNICVFADEQVDRSPTGSGVTARIALQYHKGLLELNQMRAFKSSATGSVFTGKAVREAKCGDFKAVIVEVSGQAHYTGTASFIIEDDDPLRDGFLLK [L3HYPDH]")
"55.6 °C"
>>> val("CTDSPL2")
"48.4 °C"

Now for the substance whose melting temperature we want.
# value lookup — system HeLa Kyoto, readout melting temperature, item MAAAAAAAAAAGAAGGRGSGPGRRRHLVPGAGGEAGEGAPGGAGDYGNGLESEELEPEELLLEPEPEPEPEEEPPRPRAPPGAPGPGPGSGAPGSQEEEEEPGLVEGDPGDGAIEDPELEAIKARVREMEEEAEKLKELQNEVEKQMNMSPPPGNAGPVIMSIEEKMEADARSIYVGNVDYGATAEELEAHFHGCGSVNRVTILCDKFSGHPKGFAYIEFSDKESVRTSLALDESLFRGRQIKVIPKRTNRPGISTTDRGFPRARYRARTTNYNSSRSRFYSGFNSRPRGRVYRGRARATSWYSPY [PABPN1]
48.9 °C

###

Tested on: HeLa Kyoto
Assay: melting temperature (median over replicates), in situ; higher = more thermally stable
Settings: cell cycle stage: G1/S
Consider the following sequences; for each one, report its melting temperature.
Give bare numbers, in °C.

>>> val("MVDKKLVVVFGGTGAQGGSVARTLLEDGTFKVRVVTRNPRKKAAKELRLQGAEVVQGDQDDQVIMELALNGAYATFIVTNYWESCSQEQEVKQGKLLADLARRLGLHYVVYSGLENIKKLTAGRLAAAHFDGKGEVEEYFRDIGVPMTSVRLPCYFENLLSHFLPQKAPDGKSYLLSLPTGDVPMDGMSVSDLGPVVLSLLKMPEKYVGQNIGLSTCRHTAEEYAALLTKHTRKVVHDAKMTPEDYEKLGFPGARDLANMFRFYALRPDRDIELTLRLNPKALTLDQWLEQHKGDFNLL [NMRAL1]")
48.9
>>> val("MSETVICSSRATVMLYDDGNKRWLPAGTGPQAFSRVQIYHNPTANSFRVVGRKMQPDQQVVINCAIVRGVKYNQATPNFHQWRDARQVWGLNFGSKEDAAQFAAGMASALEALEGGGPPPPPALPTWSVPNGPSPEEVEQQKRQQPGPSEHIERRVSNAGGPPAPPAGGPPPPPGPPPPPGPPPPPGLPPSGVPAAAHGAGGGPPPAPPLPAAQGPGGGGAGAPGLAAAIAGAKLRKVSKQEEASGGPTAPKAESGRSGGGGLMEEMNAMLARRRKATQVGEKTPKDESANQEEPEARVPAQSESVRRPWEKNSTTLPRMKSSSSVTTSETQPCTPSSSDYSDLQRVKQELLEEVKKELQKVKEEIIEAFVQELRKRGSP [VASP]")
49.7

Now for the sequence whose melting temperature we want.
# query: melting temperature of entry MAESDWDTVTVLRKKGPTAAQAKSKQAILAAQRRGEDVETSKKWAAGQNKQHSITKNTAKLDRETEELHHDRVTLEVGKVIQQGRQSKGLTQKDLATKINEKPQVIADYESGRAIPNNQVLGKIERAIGLKLRGKDIGKPIEKGPRAK [EDF1]
55.2
